target: Torsin-1A-interacting protein 2 (Homo sapiens) (UniProt Q8NFQ8); assay: small molecules binding lysate-expressed LULL1 – cell lysate, human LULL1 lysate, 635/667 nm fluorescence, primary screen (AID 1092); settings: small-molecule microarray, hLULL1 lysate binding, 635 nm fluorescence; higher = more signal;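 note: probe is lysate of COS7 cells overexpressing human LULL1; score merges per-feature 667 nm fluorescence with signal-to-noise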
Sequence (Q8NFQ8 whole entry, looked up): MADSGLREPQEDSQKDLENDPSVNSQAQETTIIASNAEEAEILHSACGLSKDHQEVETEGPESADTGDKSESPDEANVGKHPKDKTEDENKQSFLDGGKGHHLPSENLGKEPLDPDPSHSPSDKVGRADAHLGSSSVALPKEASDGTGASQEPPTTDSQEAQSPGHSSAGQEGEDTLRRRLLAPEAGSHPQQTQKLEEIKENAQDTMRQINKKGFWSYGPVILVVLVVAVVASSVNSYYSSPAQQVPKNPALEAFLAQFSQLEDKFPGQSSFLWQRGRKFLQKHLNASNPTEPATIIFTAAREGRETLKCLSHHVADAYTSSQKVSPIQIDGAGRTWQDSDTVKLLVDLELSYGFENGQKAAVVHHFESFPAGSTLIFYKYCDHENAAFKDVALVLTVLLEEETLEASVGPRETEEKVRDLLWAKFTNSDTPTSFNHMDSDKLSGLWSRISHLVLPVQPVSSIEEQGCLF
Category scheme (composite z-score): lower band (below 1), central band (1 to below 3), upper band (3 or more)

Request: Please classify: `COCCOC(=O)N1C(=O)[C@@]2(c3cc(C#Cc4ccc(OC)cc4)ccc31)[C@H](c1ccc(O)cc1)N1[C@H](c3ccccc3)[C@H](c3ccccc3)OC(=O)[C@H]1[C@@H]2C(=O)N1CCN(c2ncccn2)CC1`
Result: central band

Request: Class for O=C1OCC=C[C@H]2OC34C=CCN(c5ccc(Cl)cc5)C(=O)[C@H]3N(CCCO)C(=O)[C@@H]4[C@@H]12 (some centres not stated) ?
Result: central band

Request: Classify this molecule: `C=CCOC(=O)[C@@H]1[C@H]2C(=O)O[C@H](c3ccccc3)[C@H](c3ccccc3)N2[C@H](c2ccc(OCCOC(=O)[C@H]3C[C@H]4C(=O)N[C@@H](CCCC[N+](C)(C)C)C(=O)N4[C@H]3c3cccc(OCCO)c3)cc2)[C@@]12C(=O)Nc1ccc(I)cc12`
Result: central band

Request: Band for the recorded composite z-score of `C#C[C@H]1Oc2ccccc2S(=O)(=O)N2CCC[C@@H]12` ?
Result: lower band

Request: Category of `CC(C)NC(=O)[C@@H]1c2ccccc2C(=O)N(C2CCCCC2)[C@H]1c1ccc(CO)cc1` , please.
Result: central band

Request: Categorize the following entry: CS(=O)(=O)CCOC(=O)C1=CC(c2ccc(CO)cc2)=CC(c2cccs2)N(Cc2cccc(OC(F)(F)F)c2)C=C1C(=O)OCCS(C)(=O)=O (configuration not stated)
Result: upper band

Request: Sort `COc1ccc([Si](C)(C)[C@H]2[C@H](CC(=O)N3Cc4ccccc4C[C@H]3CO)O[C@@]3(C(=O)N(Cc4cccc(I)c4)c4ccccc43)[C@@H]2C)cc1` into one of the categories.
Result: lower band

Request: Any idea which band `CC(C)NC(=O)[C@@]1(c2ccc([N+](=O)[O-])cc2)CC(=O)N(C(C)C)[C@@H]1c1ccc(CO)cc1` is in?
Result: central band

Request: Determine which band this molecule sits in: COc1cc(NN2C(C(O)c3ccccc3)C=CC3C(=O)N(c4ccccc4)C(=O)C32)cc(OC)c1OC (configuration not stated)
Result: upper band

Request: GET /class?item= `O=c1cccc(-c2cccc3ccccc23)o1`
Result: lower band

Request: Band for the recorded composite z-score of `COC(=O)[C@@]1(Cc2ccc(OC)cc2)[C@H]2c3cc(C(=O)N(C)C)n(Cc4ccc(OC)c(OC)c4)c3C[C@H]2CN1C(=O)c1ccccc1` ?
Result: upper band

Request: Sort into band: `COCCOC(=O)N1C(=O)[C@@]2(c3cc(C#CCCO)ccc31)[C@H](C(=O)NC[C@H](O)c1ccccc1)[C@H]1C(=O)O[C@H](c3ccccc3)[C@H](c3ccccc3)N1[C@@H]2c1ccc(OCCO)cc1`
Result: upper band

Request: Please let me know in which category the item CN1C(=O)C2C=CC(C(O)C(C)(C)C)N(Nc3ccccc3)C2C1=O (configuration not stated) belongs.
Result: upper band

Request: Which category does the recorded composite z-score put `COc1ccc([Si](C)(C)[C@@H]2[C@@H](CCO)O[C@]3(C(=O)N(Cc4ccc(N5C(=O)c6cccc7cccc5c67)cc4)c4ccccc43)[C@H]2C)cc1` in?
Result: lower band

Request: Field: class (composite z-score) — entry: CCN(CC)c1ccc(N2CC=CC34O[C@@H]5/C=C\CCCOC(=O)C5[C@H]3C(=O)N(CCCO)[C@@H]4C2=O)cc1 (some centres not stated)
Result: upper band

Request: Lab note: sort O=C1OCCC=C[C@H]2OC34C=CCN(c5ccc6ccccc6c5)C(=O)[C@H]3N(CCCCCCO)C(=O)[C@@H]4C12 (some centres not stated) into the matching composite z-score band.
Result: lower band

Request: GET /class?item= `C=CCN1C(=O)[C@]2(Cc3ccccc31)N=C(c1ccc(OCCCO)cc1)O[C@@H]2c1ccccc1`
Result: central band

Request: Exercise: read the entry `O=C1O[C@@H](c2ccccc2)[C@@H](c2ccccc2)N2[C@@H](c3ccc(O)cc3)[C@]3(C(=O)Nc4ccccc43)[C@@H](C(=O)NC[C@H](O)c3ccccc3)[C@H]12` and state which class it falls under.
Result: central band

Request: Which bin, given its composite z-score, does `COC(=O)c1nc2oc1CC[C@@H](CO)NC(=O)N(C)Cc1cn(nn1)C[C@H](Cc1ccccc1)NC2=O` occupy?
Result: central band

Request: Place this molecule in its band: `Cc1ccccc1/C=C/C=O`
Result: lower band

Request: Determine which band this molecule sits in: O=P(NCC1(CC2(c3ccccc3)CO2)CC1)(c1ccccc1)c1ccccc1 (configuration not stated)
Result: upper band

Request: Which bin, given its composite z-score, does `C=CCNC(=O)[C@@H]1[C@H]2C(=O)O[C@H](c3ccccc3)[C@H](c3ccccc3)N2[C@H](c2ccccc2OCCO)[C@@]12C(=O)N(C(=O)OCCOC)c1ccc(C#CCC(C(=O)OC)C(=O)OC)cc12` occupy?
Result: upper band

Request: // return the class label for CCCCN1CC=CC23O[C@@H]4C=CCCOC(=O)C4[C@H]2C(=O)N(CCCO)[C@@H]3C1=O (some centres not stated)
Result: lower band

Request: Hi there! Could you help me figure out the category for `COc1c(C)cc(-c2cc3c(c(-c4ccccc4)n2)[Si](C(C)C)(C(C)C)O[C@H]3c2ccccc2)cc1C` please?
Result: lower band

Request: The entry to classify is `COc1ccccc1CN1C(=O)c2ccccc2[C@](Cc2ccccc2I)(C(=O)NCc2ccccc2)[C@@H]1c1ccc(CO)cc1` ; which class holds it?
Result: central band

Request: Textbook exercise: identify the category of the molecule given here, `COc1ccc([Si](C)(C)[C@H]2[C@H](CC(=O)N(CCO)Cc3ccccc3)O[C@@]3(C(=O)N(Cc4cccc(N5C(=O)c6cccc7cccc5c67)c4)c4ccccc43)[C@@H]2C)cc1` , according to its measured value.
Result: central band

----------
Kindly supply the reported composite z-score values for the records listed here.
biological target: E3 ubiquitin-protein ligase XIAP (Homo sapiens) (UniProt P98170); assay: small molecules binding XIAP protein – biophysical, small-molecule microarray, fluorescence 635 nm, primary screen (AID 1181); settings: higher = more signal;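 note: score merges 667 nm emission and signal to noise over triplicate slides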
Sequence (P98170 whole entry, looked up): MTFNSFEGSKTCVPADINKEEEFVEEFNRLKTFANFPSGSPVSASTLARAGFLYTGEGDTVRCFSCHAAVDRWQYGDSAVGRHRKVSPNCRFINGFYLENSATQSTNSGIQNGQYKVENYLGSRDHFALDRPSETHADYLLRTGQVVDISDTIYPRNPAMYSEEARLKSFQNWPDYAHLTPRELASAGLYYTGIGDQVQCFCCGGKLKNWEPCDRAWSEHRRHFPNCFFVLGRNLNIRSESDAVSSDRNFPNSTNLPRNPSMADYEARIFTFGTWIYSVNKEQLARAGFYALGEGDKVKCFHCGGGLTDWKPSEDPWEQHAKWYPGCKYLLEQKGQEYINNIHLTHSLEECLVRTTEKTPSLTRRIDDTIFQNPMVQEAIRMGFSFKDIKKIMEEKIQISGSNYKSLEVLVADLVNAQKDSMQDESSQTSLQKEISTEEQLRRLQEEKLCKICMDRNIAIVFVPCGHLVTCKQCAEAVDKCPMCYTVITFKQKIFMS
Answer with a bare number; do not write a unit.

Request: Entry `COc1ccc([Si](C)(C)[C@@H]2[C@@H](CCO)O[C@]3(C(=O)N(Cc4ccccc4)c4ccc(N(C=O)c5ccccc5)cc43)[C@H]2C)cc1` has what composite z-score?
Result: 0.0031

Request: May I ask what composite z-score has been recorded for `Cc1ccc(S[C@]2(C(=O)NCc3ccccc3)CC(=O)N(Cc3cc(C(F)(F)F)cc(C(F)(F)F)c3)[C@@H]2c2ccc(CO)cc2)cc1` ?
Result: -0.228

Request: Query (molecule): `C=C(CCCC)C(=O)CC[C@H](OC(=O)c1ccccc1-c1ccccc1C(=O)O)c1ccc(CO)o1` ; field requested: composite z-score
Result: -0.154

Request: What does the record list as composite z-score for `O=c1cccc(-c2ccc3ccccc3c2)o1` ?
Result: 0.0754

----------
tested on: Human papillomavirus type 1a protein E7 (residues 44-93); test: small molecules binding HPV E7 44-93 – biochemical, small-molecule microarray, residues 44-93, 635 nm fluorescence, primary screen (AID 1108); conditions: fluorescence 635 nm, higher = more signal;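 note: E7 fragment applied at 1 µg/mL in TBST for 1 h at 4 C; score combines spot fluorescence with its signal to noise ratio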
# composite z-score >= 1 gives 1.0, anything below gives 0.0

Request: Kindly determine if composite z-score recorded for `COc1ccc([Si](C)(C)[C@@H]2[C@@H](CCO)O[C@]3(C(=O)N(Cc4ccc(N5C(=O)c6cccc7cccc5c67)cc4)c4ccccc43)[C@H]2C)cc1` is above or exactly 1.
Result: 0.0

Request: I'd appreciate it if you could say whether `CCOC(=O)C1=C[C@@H](C(C)(C)C)N(S(=O)(=O)c2ccc(C)cc2)[C@H]1c1ccc(Cl)c(Cl)c1` has composite z-score at least equal to 1.
Result: 1.0

Request: Given the entry `C[N+](C)(C)CCCCNC(=O)[C@H]1C[C@H]2C(=O)N3CCC[C@H]3C(=O)N2[C@H]1c1ccc(O)cc1` , answer whether its composite z-score meets or surpasses 1.
Result: 0.0

Request: Assess whether reported composite z-score for `COCCOC(=O)N1C(=O)[C@@]2(c3cc(C#CCCO)ccc31)[C@H](C(=O)NC[C@H](O)c1ccccc1)[C@H]1C(=O)O[C@H](c3ccccc3)[C@H](c3ccccc3)N1[C@@H]2c1ccc(OCCO)cc1` sits at 1 or higher.
Result: 1.0

Request: API: above_or_equal(metric=composite z-score, cutoff=1) for item `[N-]=[N+]=NCc1ccccc1C[C@]1(C(=O)NCc2ccccc2)COC(c2ccc(OCCCO)cc2)=N1`
Result: 0.0

Request: Hi team, for `CC(C)(C)OC(=O)CC[C@@]1(C(N)=O)N=C(c2ccc(OCCCO)cc2)O[C@@H]1c1ccccc1N=[N+]=[N-]` , is the recorded composite z-score at or above 1?
Result: 1.0

Request: Could you please find out whether COCC1C2CC[C@H]3C(OCc4ccc(F)cc4C(F)(F)F)OC[C@]4(C)[C@H]3C2=C(CN4C(=O)OC(C)(C)C)[C@H](C)C1COC (some centres undefined) has composite z-score that meets 1 or exceeds it?
Result: 1.0

Request: Item `COCCn1c(C(=O)N2CCCC2)cc2c1C[C@H]1CN(C(=O)c3ccccc3)[C@@](Cc3ccc(OC)cc3)(C(=O)OC)[C@@H]21` with composite z-score of 1 or above?
Result: 0.0

Request: Check the entry `COc1ccc([Si](C)(C)[C@H]2[C@H](CCO)O[C@@]3(C(=O)N(Cc4cccc(N5C(=O)c6cccc7cccc5c67)c4)c4ccccc43)[C@@H]2C)cc1` : does composite z-score equal or exceed 1?
Result: 1.0

Request: Decide: composite z-score of `COC(=O)[C@@]1(Cc2ccc(F)cc2)[C@H]2c3cc(C(=O)N(C)C)n(CCCNc4ccc(C(F)(F)F)cc4Cl)c3C[C@H]2CN1C(=O)c1ccccc1` >= 1?
Result: 1.0

Request: # check: composite z-score of `C=CCN1Cc2ccccc2C[C@]2(N=C(c3ccc(OCCCO)cc3)O[C@@H]2c2ccccc2)C1=O` is greater than or equal to 1
Result: 1.0

Request: Reported composite z-score reaches at least 1 for `COc1ccc([Si](C)(C)[C@H]2[C@H](CCO)O[C@@]3(C(=O)N(Cc4ccccc4)c4ccc(N5C(=O)COc6ccccc65)cc43)[C@@H]2C)cc1` ?
Result: 0.0

Request: In plain terms: is recorded composite z-score at least 1 for `O=C(CS)NCCCCCNC(=O)[C@H]1C[C@H]2C(=O)N[C@@H](Cc3ccccc3)C(=O)N2[C@H]1c1cccc(OCCO)c1` ?
Result: 0.0

Request: Say whether `C=C(C(=O)CC[C@@H](OC(=O)c1cccnc1)c1ccc(OCCO)cc1)C(C)C` shows composite z-score of 1 or more.
Result: 0.0
